molecular target: binding between p34 protein and NEDD4-1 protein (Homo sapiens, UniProt P46934+Q9UHV2); construct: FLAG or 6xHis (known only from the detection antibodies); test: Inhibitory activity on binding between p34 and NEDD4-1, FRET (HTRF) assay; conditions: pH 7.4, compound 10 μM; 1×PBS pH 7.4, 0.1% BSA, 2% DMSO; 384-well
Sequence (P46934 whole entry): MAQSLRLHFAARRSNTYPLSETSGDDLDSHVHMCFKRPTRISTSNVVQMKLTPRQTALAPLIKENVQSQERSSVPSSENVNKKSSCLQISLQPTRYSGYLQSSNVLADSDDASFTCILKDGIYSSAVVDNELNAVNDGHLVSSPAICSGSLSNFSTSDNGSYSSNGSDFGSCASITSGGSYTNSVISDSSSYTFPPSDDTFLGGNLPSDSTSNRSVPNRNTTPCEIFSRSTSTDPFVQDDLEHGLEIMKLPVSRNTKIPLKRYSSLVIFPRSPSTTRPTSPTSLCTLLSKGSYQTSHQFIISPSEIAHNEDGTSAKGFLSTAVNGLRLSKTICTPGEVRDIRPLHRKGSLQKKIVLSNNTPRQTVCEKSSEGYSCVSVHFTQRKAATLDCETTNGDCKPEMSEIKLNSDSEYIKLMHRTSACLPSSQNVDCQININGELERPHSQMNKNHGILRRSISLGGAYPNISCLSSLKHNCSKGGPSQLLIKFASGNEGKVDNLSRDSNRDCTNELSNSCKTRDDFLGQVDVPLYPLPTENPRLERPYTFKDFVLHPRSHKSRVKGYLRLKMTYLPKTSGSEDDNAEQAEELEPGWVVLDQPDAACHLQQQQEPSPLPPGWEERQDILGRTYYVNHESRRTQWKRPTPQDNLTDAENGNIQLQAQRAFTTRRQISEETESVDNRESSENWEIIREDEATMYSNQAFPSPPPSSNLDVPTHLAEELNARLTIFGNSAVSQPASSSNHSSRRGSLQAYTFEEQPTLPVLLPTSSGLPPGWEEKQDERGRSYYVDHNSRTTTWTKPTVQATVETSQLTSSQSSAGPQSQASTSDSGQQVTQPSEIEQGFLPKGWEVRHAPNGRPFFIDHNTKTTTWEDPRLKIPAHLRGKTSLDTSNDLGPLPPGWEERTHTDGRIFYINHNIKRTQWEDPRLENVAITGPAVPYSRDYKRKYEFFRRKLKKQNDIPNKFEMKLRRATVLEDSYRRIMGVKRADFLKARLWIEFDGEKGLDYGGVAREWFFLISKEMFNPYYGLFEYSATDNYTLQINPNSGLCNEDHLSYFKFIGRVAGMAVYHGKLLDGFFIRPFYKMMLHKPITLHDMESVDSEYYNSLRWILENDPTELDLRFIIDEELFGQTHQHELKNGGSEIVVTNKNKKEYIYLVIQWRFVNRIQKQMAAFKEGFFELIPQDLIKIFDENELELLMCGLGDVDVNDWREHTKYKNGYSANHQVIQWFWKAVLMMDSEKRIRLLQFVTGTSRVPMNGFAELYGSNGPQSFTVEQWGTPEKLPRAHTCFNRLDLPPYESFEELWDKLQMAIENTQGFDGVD
Sequence (Q9UHV2 whole entry): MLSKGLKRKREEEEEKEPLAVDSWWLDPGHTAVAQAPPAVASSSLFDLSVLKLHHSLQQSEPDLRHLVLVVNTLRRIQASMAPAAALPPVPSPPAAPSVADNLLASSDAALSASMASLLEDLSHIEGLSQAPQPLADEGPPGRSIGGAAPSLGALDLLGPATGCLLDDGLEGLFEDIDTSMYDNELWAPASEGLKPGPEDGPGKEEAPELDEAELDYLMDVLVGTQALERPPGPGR
READOUT_TYPE: inhibition at 10 µM (%)
Please give a number only; it is taken to be in %.

Before answering, review these 3 worked examples.
INSERT INTO measurements (compound, observed) VALUES
  ('O=C(NCc1nc2cc(F)ccc2[nH]1)C1CCN(Cc2c[nH]c3ccc(C(F)(F)F)cc23)CC1', 39.4),
  ('CN(Cc1nc2ccccc2[nH]1)C(=O)C1CCN(Cc2c[nH]c3ccccc23)CC1', 32.4),
  ('O=C(C1CCN(Cc2ccc3[nH]ccc3c2)CC1)N1CCn2cc(C(F)(F)F)nc2C1', 48);

# compound Cc1ccc2nc(C(C)NC(=O)C3CCN(Cc4c[nH]c5ccc(Cl)cc45)CC3)[nH]c2c1 (stereo not shown) ; its inhibition at 10 µM = 42.4

# compound "O=C(NCc1nccs1)C1CCN(Cc2ccc3[nH]ccc3c2)CC1" ; its inhibition at 10 µM = 39.2

# compound "O=C(NCc1nc2cc(F)c(F)cc2[nH]1)C1CCN(Cc2c[nH]c3ccc(C(F)(F)F)cc23)CC1" ; its inhibition at 10 µM = 37.7

# compound CC(NC(=O)C1CCN(Cc2ccc3[nH]ccc3c2)CC1)c1nc2ccccc2[nH]1 (stereo not shown) ; its inhibition at 10 µM = 38.9

###

Reported fold induction at 5 µM is given for each of the following molecules.
tested on: PTEN (lipid phosphatase activity) in human colon cancer cell line SW620; assay: cells; format: cell-based; conditions: Homo sapiens, SW-620, 48 h, compound 5 μM, PTEN immunoprecipitation, diC8-PIP3 substrate, Biomol Green, read-out: PTEN activity (relative fold @5 μM)
A bare number is all that is needed in reply.

Before answering, review these 5 worked examples.
INSERT INTO results (molecule, observed) VALUES
  ('O=C(NCc1cncs1)N1CCN(Cc2c[nH]c3ccc(F)cc23)CC1', 2),
  ('Cc1ccc2nc(CNC(=O)C3CCN(Cc4ccc5[nH]ccc5c4)CC3)[nH]c2c1', 1.9),
  ('O=C(Nc1ccccc1)N1CCN(Cc2ccc3[nH]ccc3c2)CC1', 1.8),
  ('O=C(NCc1nc2ccccc2[nH]1)C1CCN(Cc2c[nH]c3ccccc23)CC1', 2.1),
  ('O=C(NCc1cncs1)N1CCN(Cc2c[nH]c3ccc(Cl)cc23)CC1', 1.9);

# molecule Cc1ccc2[nH]c(C(C)NC(=O)C3CCN(Cc4c[nH]c5ccc(C(F)(F)F)cc45)CC3)nc2c1 (centres unmarked) ; its fold induction at 5 µM = 2.2

# molecule "O=C(NCc1nc2ccccc2o1)C1CCN(Cc2c[nH]c3ccc(C(F)(F)F)cc23)CC1" ; its fold induction at 5 µM = 1.8

# molecule "O=C(NCc1nc2cc(Cl)ccc2[nH]1)C1CCN(Cc2c[nH]c3ccc(Cl)cc23)CC1" ; its fold induction at 5 µM = 1.8

###

system: PTEN (lipid phosphatase activity) in human colon cancer cell line SW620; assay: cells; type: cell-based; conditions: Homo sapiens, SW-620, 48 h, compound 5 μM, PTEN immunoprecipitation, diC8-PIP3 substrate, Biomol Green, read-out: PTEN activity (relative fold @5 μM)
READOUT_TYPE: fold induction at 5 µM
A bare number is all that is needed in reply.

Before answering, review these 3 worked examples.
INSERT INTO assay_data (compound, observed) VALUES
  ('O=C(NCc1nccs1)N1CCN(Cc2c[nH]c3ccc(F)cc23)CC1', 2.2),
  ('O=C(NCc1nccs1)N1CCN(Cc2n[nH]c3ccccc23)CC1', 2.2),
  ('CC(NC(=O)C1CCN(Cc2ccc3[nH]ccc3c2)CC1)c1nc2ccccc2[nH]1 (stereo not drawn)', 3.2);

Observed fold induction at 5 µM, PTEN (lipid phosphatase activity) in human colon cancer cell line SW620, O=C(NC(Cc1ccccc1)c1nc2ccccc2[nH]1)C1CCN(Cc2c[nH]c3ccc(C(F)(F)F)cc23)CC1 (stereo not drawn) : 2.5

Observed fold induction at 5 µM, PTEN (lipid phosphatase activity) in human colon cancer cell line SW620, CC(NC(=O)C1CCN(Cc2c[nH]c3ccccc23)CC1)c1nc2ccccc2[nH]1 (stereo not drawn) : 1.9

Observed fold induction at 5 µM, PTEN (lipid phosphatase activity) in human colon cancer cell line SW620, "CN(Cc1nc2ccccc2n1C)C(=O)N1CCN(Cc2c[nH]c3ccc(Cl)cc23)CC1" : 1.6

Observed fold induction at 5 µM, PTEN (lipid phosphatase activity) in human colon cancer cell line SW620, "O=C(Nc1ncccn1)N1CCN(Cc2ccc3[nH]ccc3c2)CC1" : 2.1

Observed fold induction at 5 µM, PTEN (lipid phosphatase activity) in human colon cancer cell line SW620, "Cc1[nH]c2ccc(CN3CCN(C(=O)NCc4cncs4)CC3)cc2c1C" : 2

Observed fold induction at 5 µM, PTEN (lipid phosphatase activity) in human colon cancer cell line SW620, "O=C(NCc1nccs1)N1CCN(Cc2ccc3cc[nH]c3c2)CC1" : 1.7

###

system: PTEN (lipid phosphatase activity) in human colon cancer cell line SW620; test: cells; format: cell-based; settings: Homo sapiens, SW-620, 48 h, compound 5 μM, PTEN immunoprecipitation, diC8-PIP3 substrate, Biomol Green, read-out: PTEN activity (relative fold @5 μM)
Reported fold induction at 5 µM is given for each of the following molecules.
A bare number is all that is needed in reply.

Before answering, review these 6 worked examples.
INSERT INTO assay_data (molecule, study_system, readout_type, observed) VALUES
  ('Cn1cc(CN2CCC(C(=O)NCc3nc4ccccc4[nH]3)CC2)c2ccccc21', 'PTEN (lipid phosphatase activity) in human colon cancer cell line SW620', 'fold induction at 5 µM', 2),
  ('CC(NC(=O)C1CCN(Cc2c[nH]c3ccc(C(F)(F)F)cc23)CC1)c1nc2ccccc2[nH]1 (stereo not shown)', 'PTEN (lipid phosphatase activity) in human colon cancer cell line SW620', 'fold induction at 5 µM', 1.9),
  ('O=C(C1CCN(Cc2c[nH]c3ccc(C(F)(F)F)cc23)CC1)N1CCn2cc(C(F)(F)F)nc2C1', 'PTEN (lipid phosphatase activity) in human colon cancer cell line SW620', 'fold induction at 5 µM', 1.5),
  ('Cc1ccc2[nH]c(CNC(=O)N3CCN(Cc4c[nH]c5ccc(Cl)cc45)CC3)nc2c1', 'PTEN (lipid phosphatase activity) in human colon cancer cell line SW620', 'fold induction at 5 µM', 1.8),
  ('Cn1c(CNC(=O)C2CCN(Cc3ccc4[nH]ccc4c3)CC2)nc2ccccc21', 'PTEN (lipid phosphatase activity) in human colon cancer cell line SW620', 'fold induction at 5 µM', 1.8),
  ('O=C(NCc1nc2cc(F)c(F)cc2[nH]1)C1CCN(Cc2ccc3[nH]ccc3c2)CC1', 'PTEN (lipid phosphatase activity) in human colon cancer cell line SW620', 'fold induction at 5 µM', 1.5);

# molecule "O=C(NCc1nc2ccccc2[nH]1)C1CCN(Cc2c[nH]c3ccc(Cl)cc23)CC1" ; its fold induction at 5 µM = 2.8

# molecule "O=C(NCc1nc2cc(F)c(F)cc2[nH]1)C1CCN(Cc2c[nH]c3ccccc23)CC1" ; its fold induction at 5 µM = 1.8

# molecule "O=C(NCc1nccs1)N1CCN(Cc2ccc3[nH]ccc3c2)CC1" ; its fold induction at 5 µM = 2.1

# molecule CC(NC(=O)C1CCN(Cc2c[nH]c3ccc(Cl)cc23)CC1)c1nc2ccccc2[nH]1 (stereo not shown) ; its fold induction at 5 µM = 1.5

# molecule "O=C(NCc1cncs1)N1CCN(Cc2ccc3cc[nH]c3c2)CC1" ; its fold induction at 5 µM = 1.9

# molecule "O=C(Nc1ccccn1)N1CCN(Cc2ccc3[nH]ccc3c2)CC1" ; its fold induction at 5 µM = 1.9

# molecule "O=C(NCc1cncs1)N1CCN(Cc2n[nH]c3ccccc23)CC1" ; its fold induction at 5 µM = 1.9

###

test system: PTEN (lipid phosphatase activity) in human colon cancer cell line SW620; assay: cells; format: cell-based; conditions: Homo sapiens, SW-620, 48 h, compound 5 μM, PTEN immunoprecipitation, diC8-PIP3 substrate, Biomol Green, read-out: PTEN activity (relative fold @5 μM)
Reported fold induction at 5 µM is given for each of the following compounds.
A bare number is all that is needed in reply.

Before answering, review these 2 worked examples.
INSERT INTO measurements (structure, study_system, observed) VALUES
  ('O=C(NCc1nc2cc(F)ccc2[nH]1)C1CCN(Cc2c[nH]c3ccc(C(F)(F)F)cc23)CC1', 'PTEN (lipid phosphatase activity) in human colon cancer cell line SW620', 1.5),
  ('O=C(NCc1nc2cc(F)ccc2[nH]1)C1CCN(Cc2c[nH]c3ccc(Cl)cc23)CC1', 'PTEN (lipid phosphatase activity) in human colon cancer cell line SW620', 3);

Observed fold induction at 5 µM, PTEN (lipid phosphatase activity) in human colon cancer cell line SW620, "O=C(NCc1nc2ccc(F)cc2[nH]1)C1CCN(Cc2ccc3[nH]ccc3c2)CC1" : 3.8

Observed fold induction at 5 µM, PTEN (lipid phosphatase activity) in human colon cancer cell line SW620, "O=C(NCc1cncs1)N1CCN(Cc2ccc3[nH]ccc3c2)CC1" : 2.9
